# Test system: Saccharomyces cerevisiae
# assayProtocol: fraction of cells in G1 phase (DNA content, flow cytometry); higher = more cells with unreplicated DNA (G1 delay)
# cond: temperature: 30 C; YPD; JTY2953 pdr5 snq2 (sensitized); drug added to: cultures diluted from stationary phase; 6-7 h
Counter-ions that a name gives are not always drawn.
observable: fraction of cells in G1 phase

molecule: CC1Cc2ccccc2N1NC(=O)c1ccc(Cl)c(S(N)(=O)=O)c1 (stereo unspecified) [Indapamide] (54.6685 µM)
reportedResult: 0.511

molecule: O=C(O)CCCc1ccccc1 [Sodium phenylbutyrate] (107.418 µM)
reportedResult: 0.491

molecule: CC(=O)CCCCn1c(=O)c2c(ncn2C)n(C)c1=O [Pentoxifylline] (71.8614 µM)
reportedResult: 0.487

molecule: CCN(CC)CCNC(=O)c1cc(Cl)c(N)cc1OC [Metoclopramide HCl] (66.7104 µM)
reportedResult: 0.493

molecule: CC(C)(O/N=C(\C(=O)N[C@@H]1C(=O)N2C(C(=O)[O-])=C(C[n+]3ccccc3)CS[C@H]12)c1csc(N)n1)C(=O)O [Ceftazidime] (36.5909 µM)
reportedResult: 0.486

molecule: COc1ccc(C[C@H](N)C(=O)N[C@H]2[C@@H](O)[C@H](n3cnc4c(N(C)C)ncnc43)O[C@@H]2CO)cc1 [Puromycin 2HCl] (36.7377 µM)
reportedResult: 0.5

molecule: COc1cc2nc(N3CCN(C(=O)c4ccco4)CC3)nc(N)c2cc1OC [Prazosin HCl] (47.6417 µM)
reportedResult: 0.487

molecule: O=c1[nH]cnc2c1ncn2[C@H]1CC[C@@H](CO)O1 [Didanosine] (84.6625 µM)
reportedResult: 0.514

molecule: N=C(N)N/N=C/c1c(Cl)cccc1Cl [Guanabenz acetate] (86.548 µM)
reportedResult: 0.488

molecule: Clc1ccc2c(c1)CCc1cccnc1C2=C1CCNCC1 [Desloratadine] (64.3439 µM)
reportedResult: 0.5

molecule: CN/C(=N\CCSCc1nc[nH]c1C)NC#N [Cimetidine] (79.2571 µM)
reportedResult: 0.5
